Data provenance: the array DNA melting data of Ke et al. (doi:10.1101/2024.01.08.574731)

- ASSAY COMMENT: melting temperature; fluorescence melt of hairpins on a sequencing array, two-state fit, raised by 9.35 °C to match UV melts
- PROTOCOL CONDITIONS: sodium 0.088 M
READOUT: Tm (°C)
State just the number; it will be interpreted in °C.

Known Tm results, listed for orientation:
>>> result("GATCGCTCCGGCGATC ((((((....))))))")
68.4
>>> result("GACGGCGGAAACGCCACC (..((((....))))..)")
26.9
>>> result("GCGCTGCGAAAGCTGGGC ((.(.((....)).).))")
62.4
>>> result("GTAGCGGCGAAAGCCTAC (((..(((....))))))")
29.9
>>> result("GCATAGCGAAAGCGATGC ((((.((....)).))))")
66.1

Name the reported Tm value associated with the sequence TCAACGAAAGTTGA (((((....)))))
52

Let us now turn to GCTGAGCGAAAGCCCGGC ((.(.((....)).).))
52.2

Let us now turn to GCACAGCGAAAGCGGGGC ((.(.((....)).).))
65.9

Let us now turn to GATCCCCCATGGGATC ((((((....))))))
59.9

Let us now turn to GTCTTCCGAAAGGACGAC (((.(((....))).)))
48.6

Let us now turn to GTTGCGCGAAAGCGAAC (((.(((....))))))
45.5

Let us now turn to GTAAGCGAAAGCTCTTAC ((((((....)))..)))
33.2

###

- ASSAY COMMENT: melting temperature; fluorescence melt of hairpins on a sequencing array, two-state fit, raised by 9.35 °C to match UV melts
- PROTOCOL CONDITIONS: sodium 0.088 M
The reader will find reported Tm values listed item by item below.
State just the number; it will be interpreted in °C.

Known Tm results, listed for orientation:
>>> result("GCATAAGGAAACCTATGC (((((.(....).)))))")
39.2
>>> result("GCTCTGGGAAACCAGAAC (.(((((....))))).)")
37.1
>>> result("GATCATAACTATGATC ((((((....))))))")
48
>>> result("GATCCGTCTCCGGATC ((((((....))))))")
58.4
>>> result("GCAGAGCGAAAGCCGTGC (((..((....))..)))")
42.1
>>> result("GGCCACGGAAACGTGGTC (.(((((....))))).)")
64.9

Name the reported Tm value associated with the sequence GTTGGGGGAAACCTCAAC ((((.((....)).))))
47.8

Let us now turn to GATCTAACATAGATC ((((((...))))))
39.5

Let us now turn to CGGCGTCGGAAACGACCG (((..(((....))))))
47.4

Let us now turn to GATCAAGTCGTTGATC ((((((....))))))
48

Let us now turn to GATCGAGGTTCGATC ((((((...))))))
51.6

Let us now turn to GCATACTCGAAAGAGTGC (((..(((....))))))
39

###

- ASSAY COMMENT: folding enthalpy; higher = less favourable; fluorescence melt of hairpins on a sequencing array, two-state fit
- PROTOCOL CONDITIONS: sodium 0.088 M
Recorded folding enthalpy determines the group label, using range 1 = under -30 kcal/mol, range 2 = from -30 kcal/mol up to -20 kcal/mol, range 3 = -20 kcal/mol and over

Worked examples follow.
>>> class_assignment("GACGTGGCGAAAGCCGTC (((..(((....))))))")
"range 3"
>>> class_assignment("GTAACCGAAAGGTTGTAC ((((((....)))..)))")
"range 3"
>>> class_assignment("GAGTGAGGAAACCCACTC (((((.(....).)))))")
"range 1"
>>> class_assignment("GATCACTCACGTGATC ((((((....))))))")
"range 1"
>>> class_assignment("GGGCTTCGAAAGAACCC (((.(((....))))))")
"range 2"

Form field 'band' for GAGGTACGAAAGTACTC (((.(((....))))))
range 3

Let us now turn to GCCTGGCGAAAGCCTTGC ((..(((....)))..))
range 3

Let us now turn to GTGCCTGGAAACAGACAC (((.(((....))).)))
range 2

Let us now turn to GCTGGGCGAAAGCCATGC ((..(((....)))..))
range 3

Let us now turn to CATTCGAAAGAATG (((((....)))))
range 2

Let us now turn to GCTGGCGGAAACGCCAAC (.(((((....))))).)
range 3

Let us now turn to GGAGGACCGAAAGGTTCC (((..(((....))))))
range 3

###

The reader will find reported Tm values listed item by item below.
- ASSAY COMMENT: melting temperature; fluorescence melt of hairpins on a sequencing array, two-state fit, raised by 9.35 °C to match UV melts
- PROTOCOL CONDITIONS: sodium 0.088 M
Enter the number, and then the unit.

Known Tm results, listed for orientation:
>>> result("GACGTAGGAAACTACACC (..((((....))))..)")
"25.2 °C"
>>> result("GGTTCAGGAAACTAAACC ((((.((....)).))))")
"28.6 °C"
>>> result("GGGAGCGAAAGCTCGCCC ((((((....)))..)))")
"52.7 °C"
>>> result("GATCTGAGTCAGATC ((((((...))))))")
"47.5 °C"
>>> result("GCCGGGCGAAAGCCGAGC ((..(((....)))..))")
"57.4 °C"

Name the reported Tm value associated with the sequence GGTGCCGAAAGGCAGACC ((((((....)))..)))
52.2 °C

Let us now turn to GATCAAATACTTGATC ((((((....))))))
39.9 °C

Let us now turn to GTTCCTCGAAAGAGCAAC (((.(((....))).)))
29.4 °C

Let us now turn to GATCTACTAGTAGATC ((((((....))))))
51.7 °C

Let us now turn to GATCTGCAAGCAGATC ((((((....))))))
57.6 °C

Let us now turn to GGATCCGAAAGGATTTCC ((((((....)))..)))
37.4 °C

Let us now turn to GGTCACGAAAGTGCGACC ((((((....)))..)))
40.8 °C

###

- ASSAY COMMENT: melting temperature; fluorescence melt of hairpins on a sequencing array, two-state fit, raised by 9.35 °C to match UV melts
- PROTOCOL CONDITIONS: sodium 0.088 M
hey, just use True if measured Tm is less than 50 °C, otherwise False

>>> class_assignment("GATCCCTTCTGGGATC ((((((....))))))")
"False"
>>> class_assignment("GGAGTTGGAAACAACTCC (((((((....)))))))")
"False"
>>> class_assignment("GAGAGTGCGAAAGCACTC (((..(((....))))))")
"False"
>>> class_assignment("GAAGACGAAAGTCCTTTC ((((((....)))..)))")
"True"
>>> class_assignment("GCCACACGAAAGTGGGC (((.(((....))))))")
"False"

Moving on to another sequence below.
Input CGGCCGGAAACGGAACCG ((((((....)))..))) ; condition: Tm strictly below 50 °C. Does it hold?
True

###

- ASSAY COMMENT: melting temperature; fluorescence melt of hairpins on a sequencing array, two-state fit, raised by 9.35 °C to match UV melts
- PROTOCOL CONDITIONS: sodium 0.088 M
Please enter met where Tm is greater than or equal to 40 °C, and not met where it is lower.

Quick check: does GATCCGACGACGGATC ((((((....)))))) have Tm greater than or equal to 40 °C?
met

Let us now turn to GAAAGGGGAAACCCTTTC (((((((....)))))))
met

Let us now turn to GCAATGCGAAAGCTATGC (((..((....))..)))
met

Let us now turn to GATCACTCACGTGATC ((((((....))))))
met

Let us now turn to GGACCGTCGAAAGACTCC (((..(((....))))))
not met

Let us now turn to GACGTAGGAAACTATGTC (((.(((....))).)))
met

###

- ASSAY COMMENT: folding enthalpy; higher = less favourable; fluorescence melt of hairpins on a sequencing array, two-state fit
- PROTOCOL CONDITIONS: sodium 0.088 M
Please enter class 1 where folding enthalpy is greater than or equal to -80 kJ/mol, and class 0 where it is lower.

Worked examples follow.
>>> class_assignment("GTTTCCGAAAGGAAAAAC ((((((....)))..)))")
"class 1"
>>> class_assignment("GATCTGTCACAGATC ((((((...))))))")
"class 0"
>>> class_assignment("GGGGTCGAAAGACAACCC ((((((....)))..)))")
"class 0"
>>> class_assignment("GAGATACCGAAAGGTCTC (((..(((....))))))")
"class 1"
>>> class_assignment("GTAGGCCGAAAGGCTTAC (((.(((....))).)))")
"class 0"

Quick check: does GCATTGCGAAAGCCAAGC ((.(.((....)).).)) have folding enthalpy greater than or equal to -80 kJ/mol?
class 1

Let us now turn to GATCGACATGTCGATC ((((((....))))))
class 0

Let us now turn to GCACATGGAAACATGCGC ((.((((....)))).))
class 0

Let us now turn to GATAGCGAAAGCTAAATC ((((((....)))..)))
class 1

Let us now turn to GTTAACGAAAGTTGAAAC ((((((....)))..)))
class 1

Let us now turn to GTGCGCGAAAGCGATCAC ((((((....)))..)))
class 1

Let us now turn to GGCCCAACGAAAGTTGCC (((..(((....))))))
class 1

Let us now turn to AAACAGAAATGTTT (((((....)))))
class 1

Let us now turn to GGATATGGAAACATATCC (((((((....)))))))
class 0

Let us now turn to GCCTCGGGAAACTGGGGC (((.(.(....).).)))
class 0

Let us now turn to GGAGTTACGAAAGTATCC (((..(((....))))))
class 1

Let us now turn to GCCTTGCGAAAGCAGAGC ((..(((....)))..))
class 1

Let us now turn to GTTGCGGGAAACTGCAGC (.(((.(....).))).)
class 1

Let us now turn to GAATGGGGAAACTCATTC (((((.(....).)))))
class 0

Let us now turn to GGCTGCGAAAGCACGCC ((((((....))).)))
class 0

Let us now turn to GATCCTTTTGAGGATC ((((((....))))))
class 0

Let us now turn to GGACACGGAAACGTGTTC (.(((((....))))).)
class 0

Let us now turn to GATCCAGTTTTGGATC ((((((....))))))
class 0

Let us now turn to GGTCGGGGAAACTCGACC (((((.(....).)))))
class 0
